# credit: patent US20210330611A1

System: primary rat microglia
Conditions: rat
Could you please report measured Fibrin % cell toxicity for the items listed next?
Give bare numbers, in %.

Past entries and their recorded results:
| chemical string | assay system | Fibrin % cell toxicity (%) |
| --- | --- | --- |
| CO[C@]12C[C@@H](COC(=O)c3cncc(Br)c3)CN(C)[C@@H]1Cc1cn(C)c3cccc2c13 | primary rat microglia | 1 |
| NCCS | primary rat microglia | 0 |
| CCCCCCCCCCC[C@@H](C[C@@H]1OC(=O)[C@H]1CCCCCC)OC(=O)[C@H](CC(C)C)NC=O | primary rat microglia | 1 |

Would you be so kind as to report Fibrin % cell toxicity for each listed record?
1. O=C(O)c1ccccc1O
2. CN(C)CCC=C1c2ccccc2C=Cc2ccccc21

A)
1: 0; 2: 0

----------
Tested on: LPS-induced microglia activation
Assay: Image-based assay of LPS-induced microglia activation (HTS and dose response)
Assay type: cell-based, rat
Settings: Rattus norvegicus, Microglia, 48 h, read-out: LPS IC50
measurement kind: pIC50
One number for each entry, as −log10 of the molar value.

| compound | assay system | pIC50 |
| --- | --- | --- |
| NC(=O)c1ncn([C@@H]2O[C@H](CO)[C@@H](O)[C@H]2O)n1 [Ribavirin, reference compound] | LPS-induced microglia activation | 5.70 |

Note: attention shifts to another entry.
Q) Fill in the recorded pIC50 for this compound, with LPS-induced microglia activation as test system: OCc1cc(C(O)CNCCCCCCOCCCCc2ccccc2)ccc1O (stereo not drawn) [Salmeterol, reference compound]
A) 4.85

----------
Test system: primary rat microglia
Settings: rat
measurement kind: LPS % cell toxicity (%)
One number for each entry, in %.

Past entries and their recorded results:
| molecule | LPS % cell toxicity, % |
| --- | --- |
| c1ccc(CN(CC2=NCCN2)c2ccccc2)cc1 | 1 |
| OCc1ccccc1O | 0 |
| O=C(O)c1cc(=O)[nH]c(=O)[nH]1 | 0 |
| O=C(CCCN1CCC(O)(c2ccc(Br)cc2)CC1)c1ccc(F)cc1 | 0 |
| CN(C)CCN(Cc1cccs1)c1ccccn1 | 0 |
| CCOc1nc2cccc(C(=O)OCc3oc(=O)oc3C)c2n1Cc1ccc(-c2ccccc2-c2noc(=O)[nH]2)cc1 | 1 |

Would you be so kind as to report LPS % cell toxicity for each listed record?
1. CNC(=C[N+](=O)[O-])NCCSCc1csc(CN(C)C)n1
2. CS(=O)(=O)c1ccc(C2=C(c3ccccc3)C(=O)OC2)cc1

A)
1: 0; 2: 0

Would you be so kind as to report LPS % cell toxicity for each listed record?
1. O=C(O)CCCC[C@@H]1SC[C@@H]2NC(=O)N[C@@H]21
2. CCN[C@@H](C)Cc1cccc(C(F)(F)F)c1

A)
[0, 0]

Would you be so kind as to report LPS % cell toxicity for each listed record?
1. Cl.N=C(N)NCCC[C@H](N)C(=O)O [Arginine Hydrochloride]
2. OCCOCCN1CCN(C2=Nc3ccccc3Sc3ccccc32)CC1
3. CCN1CCN(C(=O)N[C@@H](C(=O)N[C@@H]2C(=O)N3[C@@H]2SC(C)(C)[C@@H]3C(=O)O)c2ccccc2)C(=O)C1=O [Piperacillin]
4. CCC1(c2ccccc2)C(=O)NC(=O)NC1=O
5. CCOc1ccccc1C(N)=O [Ethenzamide]
6. CCn1cc(C(=O)O)c(=O)c2cnc(N3CCNCC3)nc21

A)
2
0
2
0
0
0
